B1: TPR 5TU (parent)
chain: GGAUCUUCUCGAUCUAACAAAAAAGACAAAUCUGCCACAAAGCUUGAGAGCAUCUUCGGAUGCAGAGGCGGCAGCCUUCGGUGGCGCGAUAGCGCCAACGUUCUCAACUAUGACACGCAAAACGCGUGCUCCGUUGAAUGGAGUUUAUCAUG

variants of: B1; assay: polymerase ribozyme fitness, log enrichment relative to wild type (log ratio); higher = more active; in vitro selection for triplet polymerase activity
This sample holds only a part of the variants without activity.
metric_name: polymerase ribozyme fitness (log ratio)
Lab note: record the figure alone, no unit after it.

Below, each entry is followed by its recorded polymerase ribozyme fitness (log ratio) result.
[
  {
    "alteration": "A22G C108U",
    "metric_name": "polymerase ribozyme fitness (log ratio)",
    "test_value": -4.08
  },
  {
    "alteration": "C54U",
    "metric_name": "polymerase ribozyme fitness (log ratio)",
    "test_value": -0.314
  },
  {
    "alteration": "C103G A138G",
    "metric_name": "polymerase ribozyme fitness (log ratio)",
    "test_value": -3.66
  },
  {
    "alteration": "C38A U145C",
    "metric_name": "polymerase ribozyme fitness (log ratio)",
    "test_value": -0.328
  }
]

// recorded polymerase ribozyme fitness (log ratio) for A12U C57G G65A : -3.18

Data provenance: the RNAGym collection of RNA variant scans (doi:10.1073/pnas.2313332121)
